- System: passive cutaneous anaphylaxis (PCA) reaction
- MEASUREMENT NOTES: Effect on homologous passive cutaneous anaphylaxis (PCA) reaction in rats
- Assay type: in vivo
- CONDITION DETAILS: Rattus norvegicus, po, 0.5 h; test compounds, 100 mg/kg p.o., 1 hour before induction of anaphylaxis, male wistar rats
We begin with a simple list: items and their reported inhibition in vivo at 100 mg/kg.
PROPERTY LABEL: inhibition in vivo at 100 mg/kg

In [3]: df
Out[3]:
                                   compound  result
0  COc1c(OC(C)=O)c(=O)[nH]c2cc(N)ccc12 [compound 15]     41%
1  COc1c(OC(C)=O)c(=O)n(C)c2cc(N)ccc12 [compound 6]     46%
2  CCCCCCOc1c(O)c(=O)n(C)c2cc(NCCCC)ccc12 [compound 28]     42%
3  CCCCn1c(=O)c(O)c(OC)c2ccc(N(C)C)cc21 [compound 36]     41%
4  CCCCCCOc1c(O)c2ccc(N(C)C)cc2n(C)c1=O [compound 25]     47%
5  CCCCCCOc1c(O)c2ccc(N)cc2n(CC)c1=O [compound 32]     44%
6  CCCCn1c(=O)c(O)c(OCC=C(C)C)c2ccc(NC)cc21 [compound 38]     40%
7  CCCCn1c(=O)c(OCC=C(C)C)c(O)c2ccc(NC)cc21 [compound 37]     42%
8  CCCCCCCCOc1c(O)c2ccc(NCC=C(C)C)cc2n(C)c1=O [compound 48]     50%
9  CNc1ccc2c(O)c(OCC=C(C)C)c(=O)n(C)c2c1 [compound 30]     44%

====

- Test system: passive cutaneous anaphylaxis (PCA) reaction
- MEASUREMENT NOTES: Effect on homologous passive cutaneous anaphylaxis (PCA) reaction in rats
- Assay type: in vivo
- CONDITION DETAILS: Rattus norvegicus, po, 0.5 h; test compounds, 100 mg/kg p.o., 1 hour before induction of anaphylaxis, male wistar rats
- Description: Effect on homologous passive cutaneous anaphylaxis (PCA) reaction in rats This experimental animal model is caused by immediate type allergic reaction, namely, antigen-antibody reaction. In the following, the method of this pharmacological test will be explained. Method: Male wistar rats (9 weeks old) were intradermally administered 0.05 ml of anti-serum against dinitrophenylated ascaris (DNP-As) into two sites on the shaved dorsal skin. […]
PROPERTY LABEL: inhibition in vivo at 100 mg/kg (%)

In [3]: df
Out[3]:
                                   compound  numeric_readout
0  CCCCCCCCOc1c(O)c2ccc(NC(C)=O)cc2n(C)c1=O [compound 39]               50
1  CNc1ccc2c(O)c(OC/C=C(\C)CCC=C(C)C)c(=O)n(C)c2c1 [compound 31]               46
2  CCCCOc1c(O)c(=O)n(CCC)c2cc(N)ccc12 [compound 33]               40
3  CCCCCCCCOc1c(O)c(=O)n(C)c2cc(NC)ccc12 [compound 26]               41
4  CCCCCCCCOc1c(O)c2ccc(NC(=O)/C=C/c3cc(OC)c(O)c(OC)c3)cc2n(C)c1=O [compound 41]               53
5  CCCCCCCCOc1c(O)c2ccc(NC(=O)/C=C/c3ccc(O)c(OC)c3)cc2n(C)c1=O [compound 45]               41
6  CCCCCCCCOc1c(O)c2ccc(NC(=O)/C=C/c3ccc(OC(C)=O)c(OC)c3)cc2n(C)c1=O [compound 44]               50

====

- System: passive cutaneous anaphylaxis (PCA) reaction
- MEASUREMENT NOTES: Effect on homologous passive cutaneous anaphylaxis (PCA) reaction in rats
- Type: in vivo
- CONDITION DETAILS: Rattus norvegicus, po, 0.5 h; test compounds, 100 mg/kg p.o., 1 hour before induction of anaphylaxis, male wistar rats
inhibition in vivo at 100 mg/kg by entry:
PROPERTY LABEL: inhibition in vivo at 100 mg/kg (%)

                               entry_smiles                   property_label  numeric_readout
0            CNc1ccc2c(OC)c(O)c(=O)n(C)c2c1  inhibition in vivo at 100 mg/kg               42
1       CCCCCCNc1ccc2c(O)c(OC)c(=O)n(C)c2c1  inhibition in vivo at 100 mg/kg               45
2        CCCCCCCCOc1c(O)c2ccc(N)cc2n(C)c1=O  inhibition in vivo at 100 mg/kg               57
3   CCCCNc1ccc2c(OC)c(OC(C)=O)c(=O)[nH]c2c1  inhibition in vivo at 100 mg/kg               42
4  CCCCCCCCCCOc1c(O)c(=O)n(CCC)c2cc(N)ccc12  inhibition in vivo at 100 mg/kg               40
